Cited source: patent US9546173B2

targetUnderTest: activated ERK2 (Homo sapiens (Human), UniProt P28482)
Sequence (P28482 whole entry): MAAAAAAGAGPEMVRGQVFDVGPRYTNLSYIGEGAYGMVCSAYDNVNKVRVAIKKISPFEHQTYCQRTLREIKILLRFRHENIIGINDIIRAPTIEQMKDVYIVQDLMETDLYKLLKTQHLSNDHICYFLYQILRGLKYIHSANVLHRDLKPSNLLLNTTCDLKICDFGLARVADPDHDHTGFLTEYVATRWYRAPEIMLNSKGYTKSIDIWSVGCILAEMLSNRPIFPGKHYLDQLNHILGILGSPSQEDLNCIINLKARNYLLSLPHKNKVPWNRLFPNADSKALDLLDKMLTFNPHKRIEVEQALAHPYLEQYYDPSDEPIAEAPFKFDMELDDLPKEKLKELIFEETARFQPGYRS
experimentalProtocol: Activated ERK2 kinase assay (AlphaScreen, ERKtide peptide phosphorylation)
Assay type: biochemical
particulars: […] ERK2, 200 nM ERKtide peptide, 35 μM ATP, 30 min preincubation; read-out: ERK2 IC50
pIC50: −log10 of the molar value.
Values of pIC50 greater than or equal to 7 map to Met; values below map to Not met.

>  <molecule>
CC1(C)c2cnc(NC3CCOCC3)nc2CN1C(=O)N[C@@H]1CCN(Cc2ccccc2F)C1

>  <assignedCategory>
Met

$$$$
>  <molecule>
CC1(C)c2cnc(NC3CC(F)(F)C3)nc2CN1C(=O)N[C@H](CO)c1ccccc1

>  <assignedCategory>
Not met

$$$$
>  <molecule>
CC[C@]1(C)c2cnc(NC3CCOCC3)nc2CN1C(=O)N[C@H](CO)c1ccccc1

>  <assignedCategory>
Met

$$$$
>  <molecule>
CC1(C)c2cnc(NC3CCOCC3)nc2CN1C(=O)N[C@H](CO)c1ccccc1

>  <assignedCategory>
Met

$$$$
>  <molecule>
CC1(C)c2cnc(NCC3CC3)nc2CN1C(=O)N[C@H](CO)c1ccccc1

>  <assignedCategory>
Not met

$$$$
>  <molecule>
Cc1cccc(S(=O)(=O)N2CCC[C@@H](NC(=O)N3Cc4nc(NC5CCOCC5)ncc4C3(C)C)C2)c1

>  <assignedCategory>
Met

$$$$
>  <molecule>
CC1(C)c2cnc(NC3CCOCC3)nc2CN1C(=O)NCC1CC1

>  <assignedCategory>
Not met

$$$$
>  <molecule>
CN(C)Cc1ccccc1CNC(=O)N1Cc2nc(Nc3ccccc3)ncc2C1(C)C

>  <assignedCategory>
Not met

$$$$
>  <molecule>
CC1(C)c2cnc(NC3CCOCC3)nc2CN1C(=O)N[C@H](CO)c1cccc(S(C)(=O)=O)c1

>  <assignedCategory>
Met

$$$$
>  <molecule>
CC1(C)c2cnc(NC3CCOCC3)nc2CN1C(=O)N[C@H](CO)c1cccc(Cl)c1

>  <assignedCategory>
Met

$$$$
>  <molecule>
CC1(C)c2cnc(NC3CCOCC3)nc2CN1C(=O)NC1(c2ccccc2)CCOCC1

>  <assignedCategory>
Not met

$$$$
>  <molecule>
CC1(C)c2cnc(NC3CCS(=O)(=O)C3)nc2CN1C(=O)N[C@H](CO)c1ccccc1 (stereo partly shown)

>  <assignedCategory>
Not met

$$$$

* * *

targetUnderTest: activated ERK2 (Homo sapiens (Human), UniProt P28482)
experimentalProtocol: Activated ERK2 kinase assay (AlphaScreen, ERKtide peptide phosphorylation)
Format: biochemical
particulars: […] ERK2, 200 nM ERKtide peptide, 35 μM ATP, 30 min preincubation; read-out: ERK2 IC50
So basically: is IC50 under 40 nM? Then Yes. Not under? Then No.

>  <compound>
CN1CCC(Nc2ncc3c(n2)CN(C(=O)N[C@H](CO)c2ccccc2)C3(C)C)CC1=O (stereo partly shown) [compound 83]

>  <assignedCategory>
No

$$$$
>  <compound>
O=C(NCc1ccc(Cl)cc1)N1Cc2nc(NC3CCOCC3)ncc2C12CCC2

>  <assignedCategory>
Yes

$$$$
>  <compound>
CC1(C)c2cnc(NC3CCOCC3)nc2CN1C(=O)NCc1cc(F)cc(S(C)(=O)=O)c1

>  <assignedCategory>
No

$$$$
>  <compound>
CN1CCN(C(=O)N2Cc3nc(Nc4ccccc4)ncc3C2(C)C)CC1

>  <assignedCategory>
No

$$$$
>  <compound>
CC1(C)c2cnc(NC3CCOCC3)nc2CN1C(=O)N[C@@H]1CCCN(S(=O)(=O)c2ccccc2)C1

>  <assignedCategory>
Yes

$$$$
>  <compound>
CC1(C)c2cnc(Nc3ccccc3)nc2CN1C(=O)NC1CCN(Cc2ccccc2)C1 (stereo not shown)

>  <assignedCategory>
No

$$$$
>  <compound>
CCS(=O)(=O)c1cccc(CNC(=O)N2Cc3nc(NC4CCOCC4)ncc3C2(C)C)c1

>  <assignedCategory>
Yes

$$$$

* * *

targetUnderTest: activated ERK2 (Homo sapiens (Human), UniProt P28482)
experimentalProtocol: Activated ERK2 kinase assay (AlphaScreen, ERKtide peptide phosphorylation)
Type: biochemical
particulars: […] ERK2, 200 nM ERKtide peptide, 35 μM ATP, 30 min preincubation; read-out: ERK2 IC50
Bucketed by reported IC50, buckets being small value = under 40 nM, mid value = from 40 nM up to 200 nM, large value = 200 nM and over

>  <molecule>
COc1ccc(CNC(=O)N2Cc3nc(NC4CCOCC4)ncc3C2(C)C)cc1

>  <targetUnderTest>
activated ERK2 (Homo sapiens (Human), UniProt P28482)

>  <assignedCategory>
mid value

$$$$
>  <molecule>
CCC1(C)c2cnc(NC3CCOCC3)nc2CN1C(=O)NCc1ccc(Cl)cc1 (stereo not drawn)

>  <targetUnderTest>
activated ERK2 (Homo sapiens (Human), UniProt P28482)

>  <assignedCategory>
small value

$$$$
>  <molecule>
CC1(C)c2cnc(NC3CCOCC3)nc2CN1C(=O)NCc1ccc(C#N)cc1

>  <targetUnderTest>
activated ERK2 (Homo sapiens (Human), UniProt P28482)

>  <assignedCategory>
small value

$$$$
>  <molecule>
CC1(C)c2cnc(NC3CCOCC3)nc2CN1C(=O)NCc1ccc(Cl)c(F)c1

>  <targetUnderTest>
activated ERK2 (Homo sapiens (Human), UniProt P28482)

>  <assignedCategory>
small value

$$$$
>  <molecule>
CC1(C)c2cnc(NC3CCOCC3)nc2CN1C(=O)NCc1ccc(F)cc1

>  <targetUnderTest>
activated ERK2 (Homo sapiens (Human), UniProt P28482)

>  <assignedCategory>
small value

$$$$
>  <molecule>
CC1(C)c2cnc(NC3CCOCC3)nc2CN1C(=O)NCc1cccc(C#N)c1

>  <targetUnderTest>
activated ERK2 (Homo sapiens (Human), UniProt P28482)

>  <assignedCategory>
small value

$$$$
>  <molecule>
CC1(C)c2cnc(NC3CCOCC3)nc2CN1C(=O)N[C@@H]1CCCN(S(=O)(=O)c2ccc(Cl)cc2)C1

>  <targetUnderTest>
activated ERK2 (Homo sapiens (Human), UniProt P28482)

>  <assignedCategory>
mid value

$$$$
>  <molecule>
CN1CCC(Nc2ncc3c(n2)CN(C(=O)N[C@H](CO)c2ccccc2)C3(C)C)CC1=O (stereo partly drawn) [compound 82]

>  <targetUnderTest>
activated ERK2 (Homo sapiens (Human), UniProt P28482)

>  <assignedCategory>
large value

$$$$
>  <molecule>
C[C@@H](NC(=O)N1Cc2nc(NC3CCOCC3)ncc2C1C1CC1)c1cccc(Cl)c1 (stereo partly drawn) [compound 171]

>  <targetUnderTest>
activated ERK2 (Homo sapiens (Human), UniProt P28482)

>  <assignedCategory>
large value

$$$$
>  <molecule>
CN1CC(Nc2ncc3c(n2)CN(C(=O)N[C@H](CO)c2ccccc2)C3(C)C)CCC1=O (stereo partly drawn)

>  <targetUnderTest>
activated ERK2 (Homo sapiens (Human), UniProt P28482)

>  <assignedCategory>
mid value

$$$$
>  <molecule>
CC(=O)NCCNc1ncc2c(n1)CN(C(=O)N[C@H](CO)c1ccccc1)C2(C)C

>  <targetUnderTest>
activated ERK2 (Homo sapiens (Human), UniProt P28482)

>  <assignedCategory>
large value

$$$$
>  <molecule>
CC1(C)c2cnc(NC3CCOCC3)nc2CN1C(=O)NCc1ccccc1Cl

>  <targetUnderTest>
activated ERK2 (Homo sapiens (Human), UniProt P28482)

>  <assignedCategory>
mid value

$$$$

* * *

targetUnderTest: activated ERK2 (Homo sapiens (Human))
experimentalProtocol: Activated ERK2 kinase assay (AlphaScreen, ERKtide peptide phosphorylation)
Type: biochemical
particulars: […] ERK2, 200 nM ERKtide peptide, 35 μM ATP, 30 min preincubation; read-out: ERK2 IC50
pIC50: −log10 of the molar value.
measurementName: pIC50

>  <sampleSmiles>
CC1(C)c2cnc(NC3CCOCC3)nc2CN1C(=O)NCc1ccc(Cl)c(Cl)c1

>  <measValue>
9.00

$$$$
>  <sampleSmiles>
CC1(C)c2cnc(N[C@H]3C[C@H](O)C3)nc2CN1C(=O)N[C@H](CO)c1ccccc1

>  <measValue>
6.08

$$$$
>  <sampleSmiles>
C[C@@H](NC(=O)N1Cc2nc(NC3CCOCC3)ncc2C1(C)C)c1cccc(S(C)(=O)=O)c1

>  <measValue>
8.05

$$$$
>  <sampleSmiles>
CN1CCC(Nc2ncc3c(n2)CN(C(=O)N[C@H](CO)c2ccccc2)C3(C)C)CC1

>  <measValue>
4.68

$$$$

* * *

targetUnderTest: activated ERK2 (Homo sapiens (Human), UniProt P28482)
experimentalProtocol: Activated ERK2 kinase assay (AlphaScreen, ERKtide peptide phosphorylation)
Assay type: biochemical
particulars: […] ERK2, 200 nM ERKtide peptide, 35 μM ATP, 30 min preincubation; read-out: ERK2 IC50
pIC50: −log10 of the molar value.
Output Satisfied for pIC50 not less than 6; output Not satisfied otherwise.

>  <compound>
CC1(C)c2cnc(NCC3CCCCO3)nc2CN1C(=O)N[C@H](CO)c1ccccc1 (some centres unmarked)

>  <assignedCategory>
Not satisfied

$$$$
>  <compound>
CC1(C)c2cnc(NCC3CCCO3)nc2CN1C(=O)N[C@H](CO)c1ccccc1 (some centres unmarked)

>  <assignedCategory>
Not satisfied

$$$$
>  <compound>
CC1(C)c2cnc(NC3CCC(=O)NC3)nc2CN1C(=O)N[C@H](CO)c1ccccc1 (some centres unmarked)

>  <assignedCategory>
Satisfied

$$$$
